# STUDY_TARGET: T1, ENAH EVH1 domain (monomeric, wild type) (human, UniProt Q03173 1-111 (mouse entry))
# T1 construct: ENAH residue numbers in the text count from the Met at position 25 of this entry; also called ENAH EVH1 WT; Mena EVH1 WT
# T1 sequence (Q03173 other isoform, or with tags, fused parts or gaps limits assumed): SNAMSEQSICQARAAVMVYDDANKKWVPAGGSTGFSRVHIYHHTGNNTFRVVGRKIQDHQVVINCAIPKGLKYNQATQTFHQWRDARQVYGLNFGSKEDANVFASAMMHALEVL
# TEST_PROTOCOL: BLI, steady state; SUMO-peptide immobilised, EVH1 monomer in solution
METRIC_NAME: pKd
One number for each entry, as −log10 of the molar value.

Q: Respond only with pKd recorded for NHSL1 FP4 1 peptide (biotinylated (BAP tag), Truncation of the NHSL1 36mer that keeps the first FP4 motif, tested as a SUMO fusion) peptide: MAGGLNDIFEAQKIEWHEDTGGSSHHHHHHGSGSGSDSEVNQEAKPEVKPEVKPETHINLKVSDGSSEIFFKIKKTTPLRRLMEAFAKRQGKEMDSLTFLYDGIEIQADQTPEDLDMEDNDIIEAHREQIGGSGSGADRSPFLPPPPPVTDCSQGSPLPHSPV
A: 4.31
